target: hA3 AR (Homo sapiens); assay: Competition binding of [125I]AB-MECA to hA3 AR in CHO cell membranes; conditions: read-out: hA3AR Ki; displacement of [125I]AB-MECA, CHO cells, mean ± SEM, n = 3–6
recorded.endpoint: Ki (nM)
Please give a number only; it is taken to be in nM.

In: # input compound: Nc1nc(NCCc2ccc(O)cc2)nc2nc(-c3ccco3)nn12 [ZM 241385, reference compound] ; wanted: its Ki
Out: 672

###

target: hA2A AR (Homo sapiens, UniProt P29274); experiment: Cyclic AMP assay in CHO cells expressing hA2A AR (modulation of basal cAMP)
Sequence (P29274 whole entry): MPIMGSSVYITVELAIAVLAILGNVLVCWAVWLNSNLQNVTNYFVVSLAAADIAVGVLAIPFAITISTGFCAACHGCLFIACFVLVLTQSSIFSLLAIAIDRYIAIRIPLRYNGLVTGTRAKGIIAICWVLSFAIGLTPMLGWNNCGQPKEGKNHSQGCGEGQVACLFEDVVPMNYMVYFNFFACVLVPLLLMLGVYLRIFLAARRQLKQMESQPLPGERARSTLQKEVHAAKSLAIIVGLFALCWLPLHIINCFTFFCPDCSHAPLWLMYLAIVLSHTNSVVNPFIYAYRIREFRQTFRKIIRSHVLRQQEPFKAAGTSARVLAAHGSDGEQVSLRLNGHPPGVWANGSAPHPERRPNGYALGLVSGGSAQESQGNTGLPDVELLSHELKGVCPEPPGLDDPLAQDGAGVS
recorded.endpoint: IC50 (nM)

Check out these entries, answers already filled in.
Nc1nc(NCCN2CCN(C(=O)c3ccco3)CC2)nc2sc(-c3ccco3)nc12 : 9.42
COCCOc1ccc(N2CCN(CCNc3nc(N)c4nc(-c5ccco5)sc4n3)CC2)cc1 : 15.2

[a] Nc1nc(NCC2CCN(Cc3ccccc3)CC2)nc2sc(-c3ccco3)nc12
[b] Nc1nc(NCCN2CCN(c3ccccc3)CC2)nc2sc(-c3ccco3)nc12
In: Quick one: lower IC50, a or b ? Your choice should be expressed through its label.
Out: b

###

pKi values by entry
Biological target: hA3 AR (Homo sapiens)
Sequence (P0DMS8 1-318): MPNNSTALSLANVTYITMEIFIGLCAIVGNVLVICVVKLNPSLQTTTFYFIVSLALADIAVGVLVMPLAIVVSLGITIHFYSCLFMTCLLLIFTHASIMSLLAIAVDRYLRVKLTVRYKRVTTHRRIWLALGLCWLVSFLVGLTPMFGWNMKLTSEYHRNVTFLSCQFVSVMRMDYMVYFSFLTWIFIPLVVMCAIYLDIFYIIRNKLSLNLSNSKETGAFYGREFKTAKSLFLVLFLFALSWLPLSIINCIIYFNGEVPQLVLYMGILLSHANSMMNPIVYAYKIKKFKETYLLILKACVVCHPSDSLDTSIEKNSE
Assay: Competition binding of [125I]AB-MECA to hA3 AR in CHO cell membranes
pKi: −log10 of the molar value.

Check out these entries, answers already filled in.
Nc1nc(NCCN2CCN(C(=O)c3ccco3)CC2)nc2sc(-c3ccco3)nc12 [compound 15] : < 5.00
COCCOc1ccc(N2CCN(c3nc(N)c4nc(-c5ccco5)sc4n3)CC2)cc1 [compound 5] : 6.90
Nc1nc(NCC2CCN(Cc3ccccc3)CC2)nc2sc(-c3ccco3)nc12 [compound 19] : < 5.00

In: # returns recorded pKi (system: hA3 AR (Homo sapiens)) for Nc1nc(N2CCC(Cc3ccccc3)CC2)nc2sc(-c3ccco3)nc12 [compound 1]
Out: < 5.00

In: # returns recorded pKi (system: hA3 AR (Homo sapiens)) for Nc1nc(N2CCN(c3ccccc3)CC2)nc2sc(-c3ccco3)nc12 [compound 2]
Out: < 5.00

In: # returns recorded pKi (system: hA3 AR (Homo sapiens)) for Nc1nc(N2CCN(CCN3CCCC3)CC2)nc2sc(-c3ccco3)nc12 [compound 8]
Out: < 5.00

In: # returns recorded pKi (system: hA3 AR (Homo sapiens)) for Nc1nc(NCC2CCN(CCc3ccccc3)CC2)nc2sc(-c3ccco3)nc12 [compound 21]
Out: < 5.00

In: # returns recorded pKi (system: hA3 AR (Homo sapiens)) for CCOC(=O)c1ccc(N2CCN(CCNc3nc(N)c4nc(-c5ccco5)sc4n3)CC2)cc1 [compound 16]
Out: < 5.00

In: # returns recorded pKi (system: hA3 AR (Homo sapiens)) for Nc1nc(N2CCN(Cc3ccccc3)CC2)nc2sc(-c3ccco3)nc12 [compound 3]
Out: 6.06

In: # returns recorded pKi (system: hA3 AR (Homo sapiens)) for CCOC(=O)c1ccc(CNc2nc(N)c3nc(-c4ccco4)sc3n2)cc1 [compound 17]
Out: < 5.00

In: # returns recorded pKi (system: hA3 AR (Homo sapiens)) for COCCOc1ccc(N2CCN(CCNc3nc(N)c4nc(-c5ccco5)sc4n3)CC2)cc1 [compound 14]
Out: 5.83
